Target: AMPK
Assay: AMPK activation, enzyme-linked immunosorbent assay
Type: biochemical
Conditions: EC50 for AMPK activation, ELISA
readout-name: EC50

Value of EC50 reported for the molecule COc1ccc(OC2CCN(C(=O)c3ccc(C(=O)NC4CCN(Cc5ccc(N6CCCC6)cc5)CC4)nc3)CC2)cc1 [Compound 195] is < 500 nM

Value of EC50 reported for the molecule N#Cc1ccc(CN2CCC(NC(=O)c3cnc(C(=O)N4CCC(C(=O)c5ccc(N6CCCC6)cc5)CC4)cn3)CC2)cc1 [Compound 219] is < 500 nM

Value of EC50 reported for the molecule N#Cc1ccc(CN2CCC(NC(=O)c3ccc(C(=O)N4CCC(C(=O)c5ccc(F)cc5F)CC4)cn3)CC2)cc1 [Compound 271] is < 500 nM

Value of EC50 reported for the molecule O=C(NC1CCN(Cc2ccc(F)cc2)CC1)c1cccc(C(=O)NC2CCN(Cc3ccc(F)cc3)CC2)n1 [Compound 87] is 1000 to 5000 nM

Value of EC50 reported for the molecule N#Cc1ccc(CN2CCC(NC(=O)c3ccc(C(=O)N4CCC(Oc5ccncc5)CC4)cn3)CC2)cc1 [Compound 269] is < 500 nM

Value of EC50 reported for the molecule O=C(NC1CCN(Cc2ccc(F)cc2)CC1)c1ccc(C(=O)N2CCC(C(=O)c3ccc(F)cc3)CC2)cn1 [Compound 181] is < 500 nM

Value of EC50 reported for the molecule O=C(Nc1cccc(-c2ccccc2)c1)c1ccc(C(=O)NC2CCN(Cc3ccccc3)CC2)nc1 [Compound 106] is 5000 to 10000 nM

Value of EC50 reported for the molecule COc1ccc(C(=O)C2CCN(C(=O)c3ccc(C(=O)NC4CCN(Cc5ccc(C#N)cc5)CC4)nn3)CC2)cc1 [Compound 387] is < 500 nM

Value of EC50 reported for the molecule O=C(Nc1ccc(Oc2ccc(F)cc2)nc1)c1ccc(C(=O)N2CCC(Oc3ccc(S(F)(F)(F)(F)F)cc3)CC2)nc1 [Compound 496] is < 500 nM

Value of EC50 reported for the molecule N#Cc1ccc(OC2CCN(C(=O)c3ccc(C(=O)NC4CCN(c5ccc(F)cc5)CC4)cn3)CC2)cc1 [Compound 422] is 1000 to 5000 nM

Value of EC50 reported for the molecule O=C(c1ccc(C(=O)N2CCN(CCc3ccccc3)CC2)nc1)N1CCN(Cc2ccc(F)cc2)CC1 [Compound 88] is 1000 to 5000 nM

Value of EC50 reported for the molecule O=C(NC1CCN(Cc2ccccc2)CC1)c1ccc(Nc2ccc(Oc3ccccc3)cc2)cn1 [Compound 113] is 1000 to 5000 nM

Value of EC50 reported for the molecule COc1ccc(C(=O)C2CCN(C(=O)c3ccc(C(=O)Nc4ccc(Oc5ccc(F)cc5)nc4)cn3)CC2)cc1 [Compound 325] is < 500 nM

Value of EC50 reported for the molecule N#Cc1ccc(CN2CCC(NC(=O)c3ccc(C(=O)N4CCN(c5ccc(F)cc5)CC4)cn3)CC2)cc1 [Compound 341] is < 500 nM

Value of EC50 reported for the molecule COc1ccc(CN2CCC(NC(=O)c3ccc(C(=O)N4CCC(C(=O)c5ccc(F)c(F)c5)CC4)cn3)CC2)cc1 [Compound 329] is < 500 nM

Value of EC50 reported for the molecule N#Cc1ccc(OC2CCN(C(=O)c3ccc(C(=O)N[C@H]4CC[C@@H](Oc5ccc(C(F)(F)F)cc5)CC4)nc3)CC2)cc1 [Compound 193] is < 500 nM

Value of EC50 reported for the molecule N#Cc1ccc(CN2CCC(NC(=O)c3ccc(C(=O)N4CCC(Oc5ccc(S(=O)(=O)C(F)(F)F)cc5)CC4)nc3)C(F)C2)cc1 (stereo in doubt) [Compound 451] is < 500 nM

Value of EC50 reported for the molecule N#Cc1ccc(OC2CCN(C(=O)c3ccc(C(=O)NC4CCN(Cc5ccc(N6CCCC6)cc5)CC4)nc3)CC2)cc1 [Compound 197] is < 500 nM

Value of EC50 reported for the molecule N#Cc1ccc(CN2CCC(NC(=O)c3ccc(C(=O)N4CCC(Oc5ccc(SC(F)(F)F)cc5)CC4)cn3)CC2)cc1 [Compound 410] is < 500 nM

Value of EC50 reported for the molecule CN1CCN(c2ccc(C(=O)C3CCN(C(=O)c4cnc(C(=O)NC5CCN(Cc6ccc(C#N)cc6)CC5)cn4)CC3)cc2)CC1 [Compound 220] is < 500 nM

Value of EC50 reported for the molecule CC(=O)c1ccc(Oc2ccc(NC(=O)c3ccc(C(=O)N4CCN(c5ccc(S(=O)(=O)C(C)C)cc5)CC4)nc3)cn2)cc1 [Compound 489] is < 500 nM

Value of EC50 reported for the molecule N#Cc1ccc(Cn2ccc(NC(=O)c3ccc(C(=O)N4CCN(Cc5ccc(F)cc5)CC4)cn3)n2)cc1 [Compound 9] is < 500 nM

Source: patent US9663496B2
